# TARGET_OF_ASSAY: recombinant SARS-CoV-2 Main protease (Mpro) (Severe acute respiratory syndrome coronavirus 2 (2019-nCoV) (SARS-CoV-2))
# EXPERIMENT: Cov Mpro Biochemical IC50 Assay
# CONDITION_SET: recombinant SARS-CoV-2 Mpro 7.5 nM, fluorogenic peptide substrate 40 μM; read-out: MPro IC50
QUANTITY_MEASURED: pIC50
Numbers only, as −log10 of the molar value.

Here is how some molecules turned out for pIC50.
molecule=O=c1ccc2cncc(-n3c(=O)[nH]c4cc(-c5ccccc5Cl)sc4c3=O)c2[nH]1 recorded_number=8.03
molecule=COc1cccc(C#N)c1-c1cc2c(s1)c(=O)n(-c1cncc3cnn(C)c13)c(=O)n2CCC#N recorded_number=7.49
molecule="COc1cnc(C#N)c(-c2cc3c(s2)c(=O)n(-c2cncc4ccccc24)c(=O)n3CCC#N)c1 (single isomer, unassigned) [Example 1093]" recorded_number=6.98
molecule=Cc1cc(Cl)cc(Cl)c1-c1cc2[nH]c(=O)n(-c3cncc4ccccc34)c(=O)c2s1 recorded_number=6.15

// below: pIC50 requested for another molecule
Please look at this molecule and report its pIC50: "COc1cc(-c2nc3c(s2)c(=O)n(-c2cncc4ccccc24)c(=O)n3CCC#N)c(Cl)cc1F"
8.07

Where do these numbers come from? They come from patent US20240116946A1.
